Protocol Text: Pharmacokinetic analysis, plasma concentrations by LC-MS/MS, noncompartmental
Type: in vivo, human
Condition: male, human, plasma, po, 750 mg, CMax, 750 mg oral; C1D1 (n=3), first dose
Observation Type: Cmax (ng/mL)
Numbers only here, please. The scale is ng/mL.

The recorded Cmax for CC(C)[C@](O)(c1ccc2cc(OC(F)F)c(OC(F)F)cc2c1)c1c[nH]nn1 is 5110

###

Protocol Text: Pharmacokinetic analysis, plasma concentrations by LC-MS/MS, noncompartmental
Format: in vivo, human
Condition: male, human, plasma, po, 750 mg, Vz/F, 750 mg oral; C1D1 (n=3), first dose
Observation Type: Vd/F (L)
Numbers only here, please. The scale is L.

The recorded Vd/F for CC(C)[C@](O)(c1ccc2cc(OC(F)F)c(OC(F)F)cc2c1)c1c[nH]nn1 is 260

Numbers sourced from paper PMC7415516.
